System: Staphylococcus sp.
test protocol: in vitro antibacterial evaluation, MIC by broth dilution
Type: cell-based
conditions: strain GC 4542; broth dilution, 18 hours at 35° C.
Reported values of MIC Staphylococcus aureus (GC 4542) for individual entries

molecule	tested on	MIC Staphylococcus aureus (GC 4542)
N=C1NCC(C(O)C2NC(=O)C(CC3CCC(OC4OC(CO)C(OC5OC6COC7(OC6C(O)C5O)C5CC6CC(C5)CC7C6)C(O)C4O)CC3)NC(=O)C(CC3CCCCC3)NC(=O)CNC(=O)C(CO)NC(=O)C(C(O)C3CNC(=N)N3C3OC(CO)C(O)C(O)C3O)NC2=O)N1 (single isomer, unassigned)	Staphylococcus sp.	>64 µg/mL
CC(c1ccccc1)C1NC(=O)CNC(=O)C(CO)NC(=O)C(C(O)C2CN(c3nc4ccccc4s3)C(=N)N2C2OC(CO)C(O)C(O)C2O)NC(=O)C(C(O)C2CNC(=Nc3nc4ccccc4s3)N2)NC(=O)C(Cc2ccc(OC3OC(CO)C(OC4OC(CO)C(O)C(O)C4O)C(O)C3O)cc2)NC1=O (centres unmarked)	Staphylococcus sp.	>64 µg/mL
Cc1cccc(Oc2ccc(-c3nc4cc(C[C@@H]5NC(=O)[C@H](C(C)c6ccccc6)NC(=O)CNC(=O)[C@H](CO)NC(=O)[C@H](C(O)C6CNC(=N)N6)NC(=O)[C@H](C(O)C6CNC(=N)N6)NC5=O)ccc4o3)cc2)c1 (some centres unmarked)	Staphylococcus sp.	>64 µg/mL
CC(c1ccccc1)C1NC(=O)CNC(=O)C(CO)NC(=O)C(CC2CN(Cc3ccccc3)C(=NCc3ccccc3)N2C2OC(CO)C(O)C(O)C2O)NC(=O)C(CC2CN(Cc3ccccc3)C(=NCc3ccccc3)N2Cc2ccccc2)NC(=O)C(Cc2ccc(OC3OC(CO)C(OC4OC(CO)C(O)C(O)C4O)C(O)C3O)cc2)NC1=O (centres unmarked)	Staphylococcus sp.	>128 µg/mL
CC(c1ccccc1)C1NC(=O)CNC(=O)C(CO)NC(=O)C(C(O)C2CNC(=N)N2C2OC(CO)C(O)C(O)C2O)NC(=O)C(C(O)C2CNC(=N)N2)NC(=O)C(Cc2ccc(O)c(N(C)C)c2)NC1=O (centres unmarked)	Staphylococcus sp.	>128 µg/mL

----------
System: Staphylococcus sp.
test protocol: in vitro antibacterial evaluation, MIC by broth dilution
Assay type: cell-based
conditions: broth dilution, 18 hours at 35° C.; strain GC 4549
Numbered stars: 1 amine (or outer) side, 2 acyl side, 3 side chain; on linkers, the order of the positions; unused ones are H or OH. Square brackets hold non-standard residues; d marks the D form. Peptide text beside a SMILES is read from it. ξ: configuration not given here. X6 = N=C1NCC(CC(N[*:1])C(=O)[*:2])N1C1OC(CO)C(O)C(O)C1O; Tyr(3-NO2) = N[CH](Cc1ccc(O)c([N+](=O)[O-])c1)C(=O)O; X7 = N=C1NCC(CC(N[*:1])C(=O)[*:2])N1; ξPhe(βξ-Me) = CC(c1ccccc1)C(N)C(=O)O
metric: MIC Coagulase Negative Staphylococcus (GC 4549) (µg/mL)

compound	value prefix	quantitative readout
CCCCCNC(=O)OCC1OC(OC2C(CO)OC(Oc3ccc(CC4NC(=O)C(C(C)c5ccccc5)NC(=O)CNC(=O)C(CO)NC(=O)C(C(O)C5CNC(=N)N5C5OC(CO)C(O)C(O)C5O)NC(=O)C(C(O)C5CNC(=N)N5)NC4=O)cc3)C(O)C2O)C(O)C(O)C1O (centres unmarked) [Example 251b]	=	4
COc1ccc(CC2OCC3OC(OC4C(CO)OC(Oc5ccc(CC6NC(=O)C(C(C)c7ccccc7)NC(=O)CNC(=O)C(CO)NC(=O)C(C(O)C7CNC(=N)N7C7OC(CO)C(O)C(O)C7O)NC(=O)C(C(O)C7CNC(=N)N7)NC6=O)cc5)C(O)C4O)C(O)C(O)C3O2)cc1 (centres unmarked)	=	1
CC(=O)n1cc(C2OCC3OC(OC4C(CO)OC(Oc5ccc(CC6NC(=O)C(C(C)c7ccccc7)NC(=O)CNC(=O)C(CO)NC(=O)C(C(O)C7CNC(=N)N7C7OC(CO)C(O)C(O)C7O)NC(=O)C(C(O)C7CNC(=N)N7)NC6=O)cc5)C(O)C4O)C(O)C(O)C3O2)c2ccccc21 (centres unmarked)	=	2
COc1ccc(COC2C(CO)OC(OC3C(CO)OC(Oc4ccc(CC5NC(=O)C(C(C)c6ccccc6)NC(=O)CNC(=O)C(CO)NC(=O)C(C(O)C6CNC(=N)N6C6OC(CO)C(O)C(O)C6O)NC(=O)C(C(O)C6CNC(=N)N6)NC5=O)cc4)C(O)C3O)C(O)C2O)cc1OCc1ccccc1 (centres unmarked) [Example 239a]	=	2
CC(c1ccccc1)C1NC(=O)CNC(=O)C(CO)NC(=O)C(CC2CNC(=N)N2C2OC(CO)C(O)C(O)C2O)NC(=O)C(CC2CNC(=N)N2)NC(=O)C(Cc2ccc(O)c([N+](=O)[O-])c2)NC1=O (stereo not drawn) [Example 10] (cyclo(G[ξPhe(βξ-Me)][Tyr(3-NO2)][X7][X6]S); configuration not given here)	>	64
